Origin of values: patent US12195467B2

Kindly supply the reported inhibition at 1 µM values for the records listed here.
molecular target: TrkA (Homo sapiens, UniProt P04629); construct: purchased MBL International (CycLex) CY-1091; assay: TrkA inhibitory activity, CycLex TrkA kinase assay/inhibitor screening kit; assay type: biochemical; conditions: compound 1 μM, read-out: % inhibition rate (based on 1 μM)
Sequence (P04629 33-796): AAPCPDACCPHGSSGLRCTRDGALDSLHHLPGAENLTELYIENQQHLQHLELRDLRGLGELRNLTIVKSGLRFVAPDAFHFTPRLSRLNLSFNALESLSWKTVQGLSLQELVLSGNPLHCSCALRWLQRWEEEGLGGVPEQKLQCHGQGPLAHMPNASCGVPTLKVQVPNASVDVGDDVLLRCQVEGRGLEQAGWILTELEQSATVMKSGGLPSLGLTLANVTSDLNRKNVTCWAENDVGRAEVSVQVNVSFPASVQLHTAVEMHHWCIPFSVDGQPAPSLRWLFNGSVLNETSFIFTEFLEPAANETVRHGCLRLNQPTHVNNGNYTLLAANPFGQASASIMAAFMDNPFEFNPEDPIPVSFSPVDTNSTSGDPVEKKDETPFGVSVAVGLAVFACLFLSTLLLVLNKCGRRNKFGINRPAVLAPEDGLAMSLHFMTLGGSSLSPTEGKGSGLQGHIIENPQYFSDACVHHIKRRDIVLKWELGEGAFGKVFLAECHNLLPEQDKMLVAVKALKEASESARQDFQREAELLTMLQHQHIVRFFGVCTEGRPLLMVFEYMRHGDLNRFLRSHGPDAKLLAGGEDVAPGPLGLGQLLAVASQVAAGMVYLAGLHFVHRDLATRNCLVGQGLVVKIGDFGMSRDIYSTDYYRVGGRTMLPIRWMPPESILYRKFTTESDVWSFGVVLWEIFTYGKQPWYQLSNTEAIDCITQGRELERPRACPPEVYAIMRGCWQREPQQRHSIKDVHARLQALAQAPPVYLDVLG
Reply with just the number (in %).

# inhibition at 1 µM lookup, item CN1CCN(c2ccc(C(=O)Nc3n[nH]c4ncc(-c5cnn(C6CCNCC6)c5)cc34)cc2)CC1 [Example 8]
99

Also Oc1c(Cl)cc(-c2c[nH]c3ncnc(NC4CCC(O)CC4)c23)cc1Cl (stereo not shown) [Example 23] ?
100

Continue with CN1CCN(c2ccc(C(=O)Nc3n[nH]c4ncc(-c5ccccc5)cc34)cc2)CC1 [Example 10]
98

Check Cn1cc(-c2cnc3[nH]nc(Nc4cccc(Cl)c4)c3c2)cn1 [Example 4] too.
59

Subsequent entry: CN1CCN(c2ccc(C(=O)Nc3c[nH]c4ncnc(N5CCC(C(N)=O)CC5)c34)cc2)CC1 [Example 20]
4

Note, next up: Clc1cccc(Nc2n[nH]c3cnc(-c4cccnc4)cc23)c1 [Example 1]
12

What do we get for CN1CCN(c2ccc(C(=O)Nc3c[nH]c4ncnc(N5CCCC(NC(N)=O)C5)c34)cc2)CC1 (stereo not shown) [Example 21] ?
0
